Where these numbers come from: PubChem BioAssay (NCI)

Test: NCI Yeast Anticancer Drug Screen. Data for the mec2-1 strain (AID 157)
Details: S. cerevisiae mec2-1 strain, at 50.0 µM, active compounds read high
Method: Growth inhibition of yeast strains with defined genetic alterations is measured as a screen for potential anti-cancer activity. Selected strains with alterations in DNA damage repair or cell cycle control were exposed to compounds and growth inhibition was measured relative to vehicle treated controls. The strain used in this assay is mec2-1
About 79,000 compounds went through this panel and 15% of them were active in at least one assay; those are over-represented in the sample as a whole.
measure: growth inhibition (%)
Number in %, nothing else.

1. CCOC(=O)C(Cc1ccc(OC)c(C)c1)(NC(C)=O)C(=O)OCC | 5.1
2. CN(C)CCCNc1nc(Cl)nc2nc(-c3ccccc3)c(-c3ccccc3)nc12 | 31
3. Cc1cccc(/C=C/C(=O)C(C)CN(C)C)c1 (centres undefined) | 15.6
4. O=C(NC(=S)c1ccccc1)Nc1ccccc1 | 37.5
5. C[N+]1(C)C2CC(=O)CC1C1CC12 (centres undefined) | 7.4

Looking for the measured growth inhibition of CCOC1OC(C2COC(=O)O2)C(O)C1O (centres undefined) , can you help?
10.6

Check COc1ccc2c(c1)C1(C)CCCC(C)(CO)C1CC2 (centres undefined) too.
-0.3

Again, but for CSc1nc(N)c(C(N)=O)cc1C#N
2.6

Item: CN(C)c1ccccc1CN1CCCN(Cc2ccccc2N(C)C)C1c1ccncc1
-10.1
